- target of assay: T1, recombinant human soluble gpNMB (recombinant human gpNMB-FLAG-His) (human, UniProt Q14956 23-498)
- T1 sequence: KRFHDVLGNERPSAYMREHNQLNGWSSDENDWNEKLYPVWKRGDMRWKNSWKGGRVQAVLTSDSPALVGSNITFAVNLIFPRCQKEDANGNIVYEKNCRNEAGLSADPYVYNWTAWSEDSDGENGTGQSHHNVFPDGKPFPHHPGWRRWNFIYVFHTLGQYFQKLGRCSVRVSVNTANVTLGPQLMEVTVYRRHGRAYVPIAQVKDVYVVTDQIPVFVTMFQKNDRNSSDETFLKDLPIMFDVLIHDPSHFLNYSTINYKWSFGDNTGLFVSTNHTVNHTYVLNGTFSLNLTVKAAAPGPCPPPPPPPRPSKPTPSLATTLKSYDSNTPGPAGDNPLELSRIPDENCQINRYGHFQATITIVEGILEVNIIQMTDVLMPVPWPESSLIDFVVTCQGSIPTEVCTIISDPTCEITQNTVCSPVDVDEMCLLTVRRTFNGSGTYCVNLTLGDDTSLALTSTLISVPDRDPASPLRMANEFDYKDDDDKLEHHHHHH
- method description: antigen ELISA
pEC50: −log10 of the molar value.
# pEC50 >= 8 gives 1, anything below gives -1

binder	class
hGPN18-2_H2L3 VH W54A (antibody, V domains shown) VH: QVQLVQSGPGLVQPTQTLTLTCSFSGFSLSTSVMGVGWIRQPSGKGLEWLADIAWDDDKDYNPSLKSRLTISKDTSKNQVVLTMTNMDTVDTATYYCARTYYSNYEYYGMDYWGQGTLVTVSS VL: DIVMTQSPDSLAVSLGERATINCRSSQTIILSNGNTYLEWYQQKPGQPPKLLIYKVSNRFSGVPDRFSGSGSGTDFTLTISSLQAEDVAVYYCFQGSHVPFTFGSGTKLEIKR	-1
hGPN18-2_H2L3 (antibody, V domains shown, humanized; also called humanized anti-gpNMB antibody H2L3) VH: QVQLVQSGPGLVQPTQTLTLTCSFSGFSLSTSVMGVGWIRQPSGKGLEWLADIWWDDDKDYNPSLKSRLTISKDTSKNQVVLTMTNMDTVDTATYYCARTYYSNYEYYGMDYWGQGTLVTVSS VL: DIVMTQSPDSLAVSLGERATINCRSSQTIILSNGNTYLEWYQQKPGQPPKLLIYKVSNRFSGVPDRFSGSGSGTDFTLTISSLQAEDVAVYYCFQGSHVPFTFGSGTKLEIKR	1
hGPN18-2_H2L3 VH T31A (antibody, V domains shown) VH: QVQLVQSGPGLVQPTQTLTLTCSFSGFSLSASVMGVGWIRQPSGKGLEWLADIWWDDDKDYNPSLKSRLTISKDTSKNQVVLTMTNMDTVDTATYYCARTYYSNYEYYGMDYWGQGTLVTVSS VL: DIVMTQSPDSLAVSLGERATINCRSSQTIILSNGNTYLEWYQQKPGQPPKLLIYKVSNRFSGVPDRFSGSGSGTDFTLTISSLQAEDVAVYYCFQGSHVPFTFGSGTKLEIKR	1
hGPN18-2_H2L3 VH S32A (antibody, V domains shown) VH: QVQLVQSGPGLVQPTQTLTLTCSFSGFSLSTAVMGVGWIRQPSGKGLEWLADIWWDDDKDYNPSLKSRLTISKDTSKNQVVLTMTNMDTVDTATYYCARTYYSNYEYYGMDYWGQGTLVTVSS VL: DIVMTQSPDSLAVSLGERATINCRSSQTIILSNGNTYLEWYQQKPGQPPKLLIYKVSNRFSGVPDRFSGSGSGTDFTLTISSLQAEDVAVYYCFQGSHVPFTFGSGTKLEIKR	1
hGPN18-2_H2L3 VH M34A (antibody, V domains shown) VH: QVQLVQSGPGLVQPTQTLTLTCSFSGFSLSTSVAGVGWIRQPSGKGLEWLADIWWDDDKDYNPSLKSRLTISKDTSKNQVVLTMTNMDTVDTATYYCARTYYSNYEYYGMDYWGQGTLVTVSS VL: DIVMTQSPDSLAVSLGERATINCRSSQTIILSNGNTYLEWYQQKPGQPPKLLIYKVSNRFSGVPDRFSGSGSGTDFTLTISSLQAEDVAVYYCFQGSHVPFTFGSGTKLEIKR	1
hGPN18-2_H2L3 VH F27A (antibody, V domains shown) VH: QVQLVQSGPGLVQPTQTLTLTCSFSGASLSTSVMGVGWIRQPSGKGLEWLADIWWDDDKDYNPSLKSRLTISKDTSKNQVVLTMTNMDTVDTATYYCARTYYSNYEYYGMDYWGQGTLVTVSS VL: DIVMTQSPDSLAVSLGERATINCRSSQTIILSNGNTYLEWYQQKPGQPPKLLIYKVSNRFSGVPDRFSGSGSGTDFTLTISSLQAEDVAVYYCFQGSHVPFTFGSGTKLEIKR	1

Data origin: patent EP4772193A1
